pIC50: −log10 of the molar value.
Below are pIC50 measurements against SYK kinase (Homo sapiens, UniProt P43405) drawn from the literature.

Look over these answered cases.
- compound: "CC1(C)C(=O)Nc2cc(Nc3nc4c(N(CCO)C5CCNCC5)nccn4n3)ccc21"
  tested-on: "SYK kinase (Homo sapiens, UniProt P43405)"
  pIC50: "5.52 to 6.52"
- compound: "COc1ccc(C(N)=O)cc1-c1cc2nccc(-c3c(OC)cccc3OC)c2o1"
  tested-on: "SYK kinase (Homo sapiens, UniProt P43405)"
  pIC50: "5.52 to 6.52"
- compound: "CC(=O)N1C[C@H](O)C[C@@H]1c1nc(-c2ccc(C(C)(C)O)c(F)c2)c2cnc3[nH]ccc3n12"
  tested-on: "SYK kinase (Homo sapiens, UniProt P43405)"
  pIC50: "7.52 to 8.00"
- compound: "CC(C)N1CCN(c2ccc(Nc3nc(-c4cnc5c(c4)NCCO5)cn4ccnc34)cc2)CC1"
  tested-on: "SYK kinase (Homo sapiens, UniProt P43405)"
  pIC50: 8.10
- compound: "CC1(C)OC(=O)Nc2cc(Nc3nc4c(N5CCC6(C5)NC(=O)NC6=O)nccn4n3)ccc21 (stereo not shown)"
  tested-on: "SYK kinase (Homo sapiens, UniProt P43405)"
  pIC50: "> 7.00"

Enter reported pIC50 observed with SYK kinase (Homo sapiens, UniProt P43405) for COCCCO[C@H]1CNc2cc(Nc3ncc(C(N)=O)c(NC4CC4)n3)ccc2OC1
7.00 to 8.00

Would you mind doing CC(C)(C)N1CCN(c2ccc(Nc3nc(-c4c(F)cccc4F)nc4cn[nH]c34)cc2)CC1 as well?
7.00 to 8.00

Would you mind doing CC1(C)C(=O)Nc2cc(Nc3nc4c(NS(C)(=O)=O)nccn4n3)ccc21 as well?
4.30 to 5.52
